Where do the numbers come from? From paper PMC9352680.

assay target: T1, PUF4 RNA-binding domain (Saccharomyces cerevisiae, UniProt P25339 537-888)
T1 sequence: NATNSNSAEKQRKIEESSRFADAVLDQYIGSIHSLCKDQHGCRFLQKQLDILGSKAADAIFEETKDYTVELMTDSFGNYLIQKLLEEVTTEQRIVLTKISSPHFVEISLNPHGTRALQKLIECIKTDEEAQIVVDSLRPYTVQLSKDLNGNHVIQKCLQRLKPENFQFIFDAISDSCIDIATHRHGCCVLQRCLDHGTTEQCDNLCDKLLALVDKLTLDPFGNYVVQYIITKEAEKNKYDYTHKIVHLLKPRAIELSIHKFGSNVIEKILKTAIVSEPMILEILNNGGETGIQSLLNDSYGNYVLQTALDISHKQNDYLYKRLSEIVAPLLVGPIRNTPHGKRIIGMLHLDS
experimental protocol: Mg; RNA-MaP; 20 mM Na-HEPES pH 7.4, 30 mM KOAc, 0.75 mM MgCl2, 0.1% Tween-20, 5% glycerol, 0.1 mg/mL BSA, 2 mM DTT; 25 C; 0.0125-409.6 nM protein
details: tags: N-His6-TEV cleaved; C-SNAP kept, Cy3B-labelled; label: tethered on chip by stalled RNA polymerase
test readout: pKd
A value of pKd is the negative decimal logarithm of a concentration given in moles per litre.

• ACAAACAGUAUAUAACAAAC (ssRNA) [Ia_S3_P3E.1_K3.1_C3.1_H3.1_[T1A]_A3.1_F3.1_T3.1] = 5.70
• Id_ii_S4_P3E.2_K3.1_C3.2_[C-2T]_H3.1_A3.1_F3.1_T3.2_[T9G]_[A10T] (ssRNA) RNA: UUUGACAACUGAUCGUUCUUUCUUUUGUAUAUAGUUUCUUUCUCGAUCAGUUGUCUUU = 8.67
• Id_iii_S4_P3E.8_K3.4_C3.3_[T-1C]_H3.1_A3.2_F3.1_T3.2 (ssRNA) RNA: UUUGACAACUGAUCGUUCUUUCUUCCUGUAAAUAUAUUCUUUCUCGAUCAGUUGUCUUU = 8.53
• Id_ii_S4_P3E.2_K3.1_C3.2_[C-2G]_[T-1G]_H3.1_A3.1_F3.1_T3.2_[A10T] (ssRNA) RNA: UUUGACAACUGAUCGUUCUUUCUGGUGUAUAUAUUUUCUUUCUCGAUCAGUUGUCUUU = 8.41
• ACAAACCGUAUUUUAACAAAC (ssRNA) [Ib_S3_P4E.1_K4.1_C4.1_H4.1_[T1C]_A4.1_[A6T]_F4.1_T4.1] = 5.85
• UCUCUUUGUAUCAACUCUCUU (ssRNA) [Ic_S1_P4E.1_K4.1_C4.1_H4.1_A4.1_[A6C]_[T7A]_F4.1_[T8A]_[A9C]_T4.1] = 6.29
• Id_ii_S4_P3E.2_K3.1_C3.2_[T-1G]_H3.1_A3.1_F3.1_T3.2_[T9A]_[A10C] (ssRNA) RNA: UUUGACAACUGAUCGUUCUUUCUCGUGUAUAUAACUUCUUUCUCGAUCAGUUGUCUUU = 8.07
• Id_ii_S4_P3E.2_K3.1_C3.2_[T-1G]_H3.1_A3.1_F3.1_T3.2_[T9A]_[A10G] (ssRNA) RNA: UUUGACAACUGAUCGUUCUUUCUCGUGUAUAUAAGUUCUUUCUCGAUCAGUUGUCUUU = 8.17

Q. Fill in pKd for record UCUCUUUGUACAAUAAUCUCUU (ssRNA) [Ic_S1_P5E.1_K5.1_C5.1_H5.1_A5.1_[T5C]_[T6A]_F5.1_[T9A]_T5.1]
A. 8.71

Q. Check the records and state pKd for Id_ii_S2_P5E.3_K5.2_C5.2_[C-2T]_[T-1C]_H5.2_A5.1_F5.1_T5.2_[T11C]_[A12G] (ssRNA) RNA: UUUGAUUAAUAUGAUAUCGUUCUUUCUUCUAUAUUAUUACGUUCUUUCUCGAUAUCAUAUUAAUCUUU
A. 6.38
